assay: Metabolic stability in human liver microsomes (in vitro t1/2); format: in vitro ADME; conditions: human liver microsomes, 60 min

- compound: "Cn1ncc2cccc(-n3nc(COC(C)(C)C(=O)O)cc3-c3cccc(OCC4CCC4)c3)c21 [Example 168]"
  Human microsome % 60 min, %: 78
- compound: "CC(C)(OCc1cc(-c2cccc(OC3CC3)c2)n(-c2ccccc2N2CCCC2)n1)C(=O)O [Example 221]"
  Human microsome % 60 min, %: 56
- compound: "COc1cccc(-c2cc(COC(C)(C)C(=O)O)nn2Cc2ccccc2OC)c1 [Example 36]"
  Human microsome % 60 min, %: 85
- compound: "CC[C@](C)(OCc1cc(-c2cccc(OC)c2)n(Cc2ccccc2Cl)n1)C(=O)O [Example 120]"
  Human microsome % 60 min, %: 81
- compound: "CCOc1cc(OCC)cc(-c2cc(COC(C)(C)C(=O)O)nn2-c2ccccc2Cl)c1 [Example 180]"
  Human microsome % 60 min, %: 88
- compound: "CCCn1ncc2ccc(-c3cc(COC(C)(C)C(=O)O)nn3-c3ccccc3N3CCC3)cc21 [Example 246]"
  Human microsome % 60 min, %: 65
- compound: "CCn1ncc2ccc(-c3cc(CO[C@@](C)(CC)C(=O)O)nn3Cc3ccccc3Cl)cc21 [Example 257]"
  Human microsome % 60 min, %: 96
- compound: "CC(C)COc1cccc(-c2cc(COC(C)(C)C(=O)O)nn2-c2cccc3cnn(C)c23)c1 [Example 170]"
  Human microsome % 60 min, %: 87
- compound: "CC(C)(C)COc1cccc(-c2cc(COC(C)(C)C(=O)O)nn2-c2ccccc2Cl)c1 [Example 177]"
  Human microsome % 60 min, %: 75
- compound: "COc1cccc(-c2cc(COC(C)(C)C(=O)O)nn2Cc2ccccc2Cl)c1 [Example 14]"
  Human microsome % 60 min, %: 82
- compound: "Cc1ccccc1-n1nc(COC(C)(C)C(=O)O)cc1-c1cccc(OC2CCC2)c1 [Example 161]"
  Human microsome % 60 min, %: 82
- compound: "CC(C)(OCc1cc(-c2cccc(OC3CC3)c2)n(Cc2ccccc2Cl)n1)C(=O)O [Example 39]"
  Human microsome % 60 min, %: 89
- compound: "COc1cccc(-c2cc(COC(C)(C)C(=O)O)nn2Cc2ccccc2OC(C)C)c1 [Example 140]"
  Human microsome % 60 min, %: 67
- compound: "Cn1ncc2cccc(-n3nc(COC(C)(C)C(=O)O)cc3-c3cccc(OC4CC4)c3)c21 [Example 191]"
  Human microsome % 60 min, %: 98
- compound: "CC(C)(OCc1cc(-c2cccc(OC3CC3)c2)n(Cc2ccccc2N2CCCC2)n1)C(=O)O [Example 202]"
  Human microsome % 60 min, %: 32
- compound: "CC(C)(OCc1cc(-c2cccc(OC3CC3)c2)n(-c2ccccc2N2CCC2)n1)C(=O)O [Example 232]"
  Human microsome % 60 min, %: 65
- compound: "CCn1ncc2ccc(-c3cc(COC(C)(C)C(=O)O)nn3Cc3ccccc3Cl)cc21 [Example 150]"
  Human microsome % 60 min, %: 90
- compound: "COc1cc(OC)cc(-c2cc(COC(C)(C)C(=O)O)nn2-c2ccccc2Cl)c1 [Example 179]"
  Human microsome % 60 min, %: 93

###

Entries and their Mouse microsome % 60 min
assay: Metabolic stability in mouse liver microsomes (in vitro t1/2); format: in vitro ADME; conditions: mouse liver microsomes, 60 min

- compound: "CC(C)COc1cccc(-c2cc(COC(C)(C)C(=O)O)nn2Cc2ccccc2Cl)c1"
  scale unit: "%"
  Mouse microsome % 60 min: 50
- compound: "CCn1ncc2ccc(-c3cc(COC(C)(C)C(=O)O)nn3-c3ccccc3Cl)cc21"
  scale unit: "%"
  Mouse microsome % 60 min: 102
- compound: "CC(C)(OCc1cc(-c2cccc(OC3CC3)c2)n(-c2ccccc2N2CCC2)n1)C(=O)O"
  scale unit: "%"
  Mouse microsome % 60 min: 59
- compound: "CCC(C)(OCc1cc(-c2cccc(OC)c2)n(Cc2ccccc2Cl)n1)C(=O)O (centres unmarked)"
  scale unit: "%"
  Mouse microsome % 60 min: 91
- compound: "CC(C)Cc1ncc(-c2cc(COC(C)(C)C(=O)O)nn2Cc2ccccc2Cl)o1"
  scale unit: "%"
  Mouse microsome % 60 min: 72
- compound: "CC(C)(C)COc1cccc(-c2cc(COC(C)(C)C(=O)O)nn2-c2ccccc2N2CCC2)c1"
  scale unit: "%"
  Mouse microsome % 60 min: 37
- compound: "COc1cccc(-c2cc(COC(C)(C)C(=O)O)nn2Cc2ccccc2N(C)C)c1"
  scale unit: "%"
  Mouse microsome % 60 min: 61
- compound: "COc1cc(OC)cc(-c2cc(COC(C)(C)C(=O)O)nn2-c2ccccc2N2CCC2)c1"
  scale unit: "%"
  Mouse microsome % 60 min: 63

###

molecular target: UniProtKB O15427; test: Assay 3: MCT4-mediated lactate transport in MDA-MB-231 breast cancer cells; type: cell-based; settings: MDA-MB-231 cells; lactate transport
Sequence (O15427 whole entry, looked up): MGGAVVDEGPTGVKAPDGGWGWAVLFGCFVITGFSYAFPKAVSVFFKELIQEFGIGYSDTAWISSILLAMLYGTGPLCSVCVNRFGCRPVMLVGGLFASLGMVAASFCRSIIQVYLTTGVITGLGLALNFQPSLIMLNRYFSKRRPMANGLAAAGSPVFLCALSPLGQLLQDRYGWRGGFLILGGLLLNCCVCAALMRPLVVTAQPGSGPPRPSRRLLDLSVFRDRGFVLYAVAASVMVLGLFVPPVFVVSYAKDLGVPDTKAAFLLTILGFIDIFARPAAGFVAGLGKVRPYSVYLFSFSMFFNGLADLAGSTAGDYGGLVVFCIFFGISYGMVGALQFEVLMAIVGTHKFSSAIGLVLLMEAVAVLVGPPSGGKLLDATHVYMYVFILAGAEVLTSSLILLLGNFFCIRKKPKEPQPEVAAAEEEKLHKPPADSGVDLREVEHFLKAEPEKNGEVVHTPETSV
Sequence (P35613 whole entry partner, looked up): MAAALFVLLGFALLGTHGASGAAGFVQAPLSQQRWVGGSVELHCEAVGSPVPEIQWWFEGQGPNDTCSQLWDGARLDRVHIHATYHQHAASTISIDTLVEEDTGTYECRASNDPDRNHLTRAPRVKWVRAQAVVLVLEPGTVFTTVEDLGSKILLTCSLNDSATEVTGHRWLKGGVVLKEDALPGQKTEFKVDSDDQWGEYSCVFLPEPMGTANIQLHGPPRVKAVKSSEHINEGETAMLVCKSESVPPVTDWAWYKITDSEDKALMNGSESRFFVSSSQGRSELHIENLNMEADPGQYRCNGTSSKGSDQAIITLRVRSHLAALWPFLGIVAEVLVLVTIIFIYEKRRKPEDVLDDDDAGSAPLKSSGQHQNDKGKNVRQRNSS
quantity name: log10 of IC50 (log10 of the value in nM)

- compound: "CCn1ncc2ccc(-c3cc(COC(C)(C)C(=O)O)nn3-c3ccccc3N3CCCC3)cc21 [Example 229]"
  log10 of IC50: 0.28
- compound: "CC(C)Oc1ncc(-c2cc(COC(C)(C)C(=O)O)nn2Cc2ccccc2Cl)o1 [Example 227]"
  log10 of IC50: 2.84
- compound: "CC(C)(C)COc1cccc(-c2cc(COC(C)(C)C(=O)O)nn2-c2ccccc2Cl)c1 [Example 177]"
  log10 of IC50: 0.15
- compound: "CCn1ncc2ccc(-c3cc(CO[C@](C)(CC)C(=O)O)nn3Cc3ccccc3Cl)cc21 [Example 220]"
  log10 of IC50: -0.27
- compound: "CC[C@](C)(OCc1cc(-c2cccc(OC)c2)n(Cc2ccccc2Cl)n1)C(=O)O [Example 120]"
  log10 of IC50: 0.60
- compound: "CC[C@@](C)(OCc1cc(-c2cccc(OCC(C)(C)C)c2)n(-c2cccc3cnn(C)c23)n1)C(=O)O [Example 223]"
  log10 of IC50: -0.52
- compound: "CC(C)COc1ncc(-c2cc(COC(C)(C)C(=O)O)nn2Cc2ccccc2Cl)s1 [Example 132]"
  log10 of IC50: 0.93
- compound: "CCCn1ncc2ccc(-c3cc(CO[C@](C)(CC)C(=O)O)nn3-c3ccccc3N3CCC3)cc21 [Example 267]"
  log10 of IC50: -0.24
- compound: "CC(C)(OCc1cc(-c2cccc(OC3CC3)c2)n(-c2ccccc2N2CC[C@H](O)C2)n1)C(=O)O [Example 233]"
  log10 of IC50: 2.85
- compound: "CCOc1cccc(F)c1Cn1nc(COC(C)(C)C(=O)O)cc1-c1cc(OC)cc(OC)c1 [Example 252]"
  log10 of IC50: 1.40
- compound: "Cn1cnc2cccc(-n3nc(COC(C)(C)C(=O)O)cc3-c3cccc(OC4CC4)c3)c21 [Example 194]"
  log10 of IC50: 3.54
- compound: "COc1cc(OC)cc(-c2cc(COC(C)(C)C(=O)O)nn2-c2cccc3cnn(C)c23)c1 [Example 249]"
  log10 of IC50: 1.59
- compound: "CCOc1cc(OCC)cc(-c2cc(COC(C)(C)C(=O)O)nn2Cc2ccccc2Cl)c1 [Example 213]"
  log10 of IC50: 1.08
- compound: "CC(C)(OCc1cc(-c2cccc(OC3CC3)c2)n(-c2ccccc2Br)n1)C(=O)O [Example 182]"
  log10 of IC50: 0.77
- compound: "Cn1ncc2cccc(-n3nc(COC(C)(C)C(=O)O)cc3-c3cccc(OCC4CC4)c3)c21 [Example 169]"
  log10 of IC50: 1.09

###

Entries and their Vd
assay: Pharmacokinetic assay in rat (IV 3 mg/kg, PO 10 mg/kg); format: in vivo; settings: plasma, Male Sprague-Dawley rat, volume of distribution, read-out: Rat Vss

- smiles representation: "CCCn1ncc2ccc(-c3cc(CO[C@](C)(CC)C(=O)O)nn3-c3ccccc3N3CCC3)cc21"
  scale unit: "L/kg"
  Vd: 7.7
- smiles representation: "CCn1ncc2ccc(-c3cc(CO[C@@](C)(CC)C(=O)O)nn3Cc3ccccc3Cl)cc21"
  scale unit: "L/kg"
  Vd: 1.6
- smiles representation: "COc1cc(OC)cc(-c2cc(COC(C)(C)C(=O)O)nn2Cc2ccccc2Cl)c1"
  scale unit: "L/kg"
  Vd: 1.3
- smiles representation: "CCOc1ccccc1Cn1nc(COC(C)(C)C(=O)O)cc1-c1cc(OC)cc(OC)c1"
  scale unit: "L/kg"
  Vd: 3.6
- smiles representation: "COc1cccc(-c2cc(COC(C)(C)C(=O)O)nn2Cc2ccccc2Cl)c1"
  scale unit: "L/kg"
  Vd: 1.3
- smiles representation: "CCCn1ncc2ccc(-c3cc(COC(C)(C)C(=O)O)nn3-c3ccccc3N3CCC3)cc21"
  scale unit: "L/kg"
  Vd: 1.7
- smiles representation: "Cn1ncc2cccc(-n3nc(COC(C)(C)C(=O)O)cc3-c3cccc(OC4CC4)c3)c21"
  scale unit: "L/kg"
  Vd: 1
- smiles representation: "CCn1ncc2ccc(-c3cc(COC(C)(C)C(=O)O)nn3-c3ccccc3N3CCC3)cc21"
  scale unit: "L/kg"
  Vd: 1.3
